Provenance of the data: PubChem BioAssay (NCI)

System: SN12C renal
Test: NCI-60 one-dose screen, 48 h (100 = growth as untreated, 0 = no growth, -100 = all killed)
Conditions: 10 µM unless noted
The panel holds about 83,000 compounds, 20% with a hit somewhere; the sample as a whole holds those more often.
Category key, based on recorded growth: band 1 = under 60%, band 2 = from 60% up to 90%, band 3 = 90% and over

1. Clc1ccc2oc3c(OCCCn4ccnc4)c4ccccc4nc3c2c1    band 1
2. COc1cc(-c2nc3ccc(-c4nnc(SCC(=O)Nc5ccc(C(C)=O)cc5)o4)cc3[nH]2)cc(OC)c1OC    band 3
3. CN(C)CCCOc1c2ccc(Cl)cc2nc2c1oc1ccccc12    band 1
4. CN1CCc2c(sc3ncnc(N/N=C/c4ccc(Cl)c(Cl)c4)c23)C1    band 2
5. Fc1ccc(-c2cc3nc(C(Cl)Cl)nc(-c4ccccc4)n3n2)cc1    band 1
6. COc1cccc(NC2=CC(=O)C(C)=C(C)C2=O)c1    band 2
7. Clc1ccc(Cc2nnc3sc(-c4cccnc4)nn23)cc1    band 3
8. CS(=O)(=O)c1ccc(-c2nc3ccccn3c2/C=N/Nc2nc(-c3ccc(Br)cc3)cs2)cc1    band 3
9. C/C(=N/NC(N)=S)c1ccc(Nc2nc(SCC(C)C)nc(-c3ccc(F)cc3)c2C#N)cc1    band 1

----------
Tested on: UACC-62 melanoma
Experiment: NCI-60 one-dose screen, 48 h (100 = growth as untreated, 0 = no growth, -100 = all killed)
Conditions: 10 µM unless noted
This is part of a sample that, as a whole, favours compounds with a hit. Of some 83,000 tested, about 20% had one in any assay.
Listed next: entries and their corresponding growth.
attribute_measured: growth (%)

1) CCCC(=O)NC(c1ccc(N(CC)CC)cc1)c1cc(C)c2cccnc2c1O (stereo unspecified)    8.31
2) Cc1cc2nc3c4cc(Cl)ccc4n(CC(=O)NCCN(C)C)c3nc2cc1C    79.4
3) Cn1cc(-c2cc(N)n3nc(-c4cn(C)c5ccc(Br)cc45)cc3n2)c2cc(Br)ccc21    92.1
4) C#C[C@]1(O)CC[C@H]2[C@@H]3CC=C4c5sc(Nc6ccc(Cl)cn6)nc5CC[C@]4(C)[C@H]3CC[C@@]21C    28.3
5) [Cl][Ru].c1ccc(-c2cc(-c3ccccn3)nc(-c3ccccn3)c2)cc1.c1ccc(-c2ccnc3c2ccc2c(-c4ccccc4)ccnc23)cc1    -68
6) COc1ccc(/C=C2\SC(=Nc3cc(C)on3)NC2=O)cc1    95.1
7) CCOC(=O)c1c(Nc2ccccc2)nn2c(N)c(C#N)c(-c3ccc(Cl)cc3)nc12    70
8) COc1cc(/C=C/C(=O)c2ccc(F)cc2)ccc1Oc1nc(NCCO)nc(N2CCOCC2)n1    57.2
9) Cc1cccc(/C=C/c2nn3c(-c4ccco4)nnc3s2)c1    94
10) CC(C)(C)Nc1nc2c(OCCc3ccccc3)cccn2c1-c1cccc(F)c1    -7.68
11) CCN1C(=S)N(CC)C2C1NN=C1SC(c3ccccc3)=CC(=O)N12 (stereo unspecified)    92.6
12) NS(=O)(=O)c1cccc(Nc2nc(SCC(=O)c3ccc(Cl)cc3)nc3ccccc23)c1    62.6
13) Nc1c(C(=O)c2ccc(Br)cc2)oc2nc(-c3cnccn3)cc(-c3cccs3)c12    93.7
14) O=C1Nc2cc(Cl)ccc2/C1=C\c1ccc(OCc2ccc(Br)cc2F)cc1    -74.3
15) C#Cc1nc(C2=C(C)C(O)/C(=N/O)C2)cs1 (stereo unspecified)    88
16) CC(=O)c1ccc(Nc2nc(SC(C)C)nc(-c3ccccc3)c2C#N)cc1    82.3
